Numbers sourced from ChEMBL document CHEMBL4196074.

# Test system: SH-SY5Y
# run-description: Inhibition of Cu2+-induced toxicity in human SH-SY5Y cells expressing APPswe mutant assessed as increase in cell viability at 1 uM after 72 hrs by WST1 assay
# Type: cell-based
Active and inactive are the calls of the source. No cut-off for these calls is given here.
readout: inhibition

Below: 4 compounds and their reported inhibition.
| chemical-smiles | readout | result |
| --- | --- | --- |
| C[C@H](CCC(=O)N/N=C/c1ccc(C(C)(C)C)cc1O)[C@H]1CC[C@H]2[C@@H]3[C@H](O)C[C@@H]4C[C@H](O)CC[C@]4(C)[C@H]3C[C@H](O)[C@]12C | inhibition | Active |
| C[C@H](CCC(=O)NN=C(c1ccccn1)c1ccccn1)[C@H]1CC[C@H]2[C@@H]3[C@H](O)C[C@@H]4C[C@H](O)CC[C@]4(C)[C@H]3C[C@H](O)[C@]12C | inhibition | Active |
| Cc1ncc(CO)c(/C=N/NC(=O)CC[C@@H](C)[C@H]2CC[C@H]3[C@@H]4[C@H](O)C[C@@H]5C[C@H](O)CC[C@]5(C)[C@H]4C[C@H](O)[C@]23C)c1O | inhibition | Active |
| C[C@H](CCC(=O)N/N=C/c1ccc2ccccc2n1)[C@H]1CC[C@H]2[C@@H]3[C@H](O)C[C@@H]4C[C@H](O)CC[C@]4(C)[C@H]3C[C@H](O)[C@]12C | inhibition | Active |

// returns inhibition for "COc1cccc(/C=N/NC(=O)CC[C@@H](C)[C@H]2CC[C@H]3[C@@H]4[C@H](O)C[C@@H]5C[C@H](O)CC[C@]5(C)[C@H]4C[C@H](O)[C@]23C)c1O" with SH-SY5Y; value = Active
